study.target: baculoviral GST-MLK3KD (Homo sapiens)
Construct: 2 μg/ml of baculoviral GST-MLK3KD; GST (N); host or cells: baculovirus expression system
Sequence (Q16584 117-379 limits assumed): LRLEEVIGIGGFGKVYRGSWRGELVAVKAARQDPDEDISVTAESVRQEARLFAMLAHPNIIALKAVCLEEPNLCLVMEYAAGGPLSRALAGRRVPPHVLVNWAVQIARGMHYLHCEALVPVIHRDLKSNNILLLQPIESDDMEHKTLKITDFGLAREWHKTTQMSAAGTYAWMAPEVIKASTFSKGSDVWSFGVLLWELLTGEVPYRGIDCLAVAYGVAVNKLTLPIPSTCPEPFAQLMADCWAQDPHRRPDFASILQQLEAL
protocol.text: Mixed Lineage Kinase-3 inhibition assay (Millipore Multiscreen plate, 32P)
Assay type: biochemical
measurement.context: 1 uM compound; 100 μM ATP
experimental.readout: MLK-3 Kinase % inhibition @ 1 uM (%)
Field format: number, assumed %, no unit text.

molecule	experimental.readout	unit.abbreviation	value
COc1ccc2[nH]cc(C=C3C(=O)NN=C3c3ccco3)c2c1 [Compound 51]	MLK-3 Kinase % inhibition @ 1 uM	%	47
Cc1cc(C)c(C=C2C(=O)NN=C2c2ccccn2)[nH]1 [Compound 30]	MLK-3 Kinase % inhibition @ 1 uM	%	46
Cc1cc(C)c(C=C2C(=O)NN=C2c2ccncc2)[nH]1 [Compound 3]	MLK-3 Kinase % inhibition @ 1 uM	%	12
Cc1oc(-c2ccc(Cl)cc2)cc1C1=NNC(=O)C1=Cc1c[nH]c2ccccc12 [Compound 42]	MLK-3 Kinase % inhibition @ 1 uM	%	21
Cc1cc(C)c(C=C2C(=O)NN=C2c2cccn2C)[nH]1 [Compound 55]	MLK-3 Kinase % inhibition @ 1 uM	%	26
Cn1cccc1C1=NNC(=O)C1=Cc1c[nH]c2ccc(F)cc12 [Compound 56]	MLK-3 Kinase % inhibition @ 1 uM	%	−1
Cc1cccc2c(C=C3C(=O)NN=C3c3ccoc3)c[nH]c12 [Compound 22]	MLK-3 Kinase % inhibition @ 1 uM	%	24
O=C1NN=C(c2ccoc2)C1=CC=C(c1ccccc1)c1ccccc1 [Compound 4]	MLK-3 Kinase % inhibition @ 1 uM	%	−6

Here's the next entry for you.
Data point: Cc1cc(C)c(C=C2C(=O)NN=C2c2cccs2)[nH]1 [Compound 61] ; MLK-3 Kinase % inhibition @ 1 uM = 72

----------
Attribute: inhibition at 1 µM
study.target: recombinant human baculovirus-expressed FGFR1 cytoplasmic domain (Homo sapiens, UniProt P11362)
Construct: recombinant human baculovirus-expressed FGFR1 cytoplasmic domain; host or cells: baculovirus expression system
Sequence (P11362 398-822 limits assumed): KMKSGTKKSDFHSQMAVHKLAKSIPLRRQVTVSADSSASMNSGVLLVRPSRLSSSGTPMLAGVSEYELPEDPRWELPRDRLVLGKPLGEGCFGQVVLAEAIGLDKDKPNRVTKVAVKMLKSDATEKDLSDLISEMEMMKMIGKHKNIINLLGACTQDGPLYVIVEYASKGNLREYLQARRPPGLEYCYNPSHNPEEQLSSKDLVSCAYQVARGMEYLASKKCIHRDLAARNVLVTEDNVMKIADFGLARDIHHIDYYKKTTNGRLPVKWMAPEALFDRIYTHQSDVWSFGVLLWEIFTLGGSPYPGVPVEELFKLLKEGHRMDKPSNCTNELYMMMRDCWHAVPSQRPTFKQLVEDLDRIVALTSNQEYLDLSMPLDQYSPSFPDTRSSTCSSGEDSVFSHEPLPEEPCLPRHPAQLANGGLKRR
protocol.text: FGFR1 kinase inhibition assay (ELISA-based, time-resolved fluorescence)
Assay type: biochemical
measurement.context: 1 uM compound; 20 μM ATP
Field format: number, assumed %, no unit text.

structure.string	inhibition at 1 µM, %
O=C1NN=C(c2cccs2)C1=Cc1c[nH]c2ccccc12	28
Cc1cc(C)c(C=C2C(=O)NN=C2c2nccs2)[nH]1	46

Here's the next entry for you.
Data point: Cc1cc(C)c(C=C2C(=O)NN=C2c2ccco2)[nH]1 ; inhibition at 1 µM = 37

----------
Attribute: FGFR1 % inhibition @ 1 uM
study.target: recombinant human baculovirus-expressed FGFR1 cytoplasmic domain (Homo sapiens)
Construct: recombinant human baculovirus-expressed FGFR1 cytoplasmic domain; host or cells: baculovirus expression system
protocol.text: FGFR1 kinase inhibition assay (ELISA-based, time-resolved fluorescence)
Assay type: biochemical
measurement.context: 1 uM compound; 20 μM ATP
Method: Inhibition of Fibroblast Growth Factor Receptor-1 (FGFR1) Kinase Activity The FGFR1 kinase activity was measured using an ELISA-based format in a 96-well FluoroNUNC Maxisorp plate with a time-resolved fluorescence readout as described for trkA kinase. […] After 5 min, the fluorescence of the resulting solutions measured using the BMG Fluostar (Model # 403).
Kindly format the answer as number then unit.

molecule	FGFR1 % inhibition @ 1 uM
Cc1cc(C)c(C=C2C(=O)NN=C2c2cc(C)oc2C)[nH]1 [Compound 36]	31%
Cn1cc(C=C2C(=O)NN=C2c2ccoc2)c2ccccc21 [Compound 20]	27%
Cc1ccc2c(C=C3C(=O)NN=C3c3ccn(C)c3)c[nH]c2c1 [Compound 33]	27%
Cc1ccc2c(C=C3C(=O)NN=C3c3ccco3)c[nH]c2c1 [Compound 46]	25%
CN(C)c1ccc(C=C2C(=O)NN=C2c2ccco2)cc1 [Compound 52]	10%
O=C1NN=C(c2ccoc2)C1=Cc1c[nH]c2ccc(OCc3ccccc3)cc12 [Compound 21]	15%
O=C1NN=C(c2ccco2)C1=Cc1ncc[nH]1 [Compound 54]	45%
O=C1NN=C(c2ccoc2)C1=Cc1cn(Cc2ccccc2)c2ccccc12 [Compound 68]	27%

Data point: O=C1NN=C(c2ccco2)C1=Cc1cn(CCOCc2ccccc2)c2ccccc12 [Compound 71] ; FGFR1 % inhibition @ 1 uM = 26%

----------
study.target: recombinant human baculovirus-expressed VEGFR1 cytoplasmic domain (Homo sapiens, UniProt P17948)
Construct: recombinant human baculovirus-expressed VEGFR1 cytoplasmic domain; host or cells: baculovirus expression system
Sequence (P17948 781-1338 limits assumed): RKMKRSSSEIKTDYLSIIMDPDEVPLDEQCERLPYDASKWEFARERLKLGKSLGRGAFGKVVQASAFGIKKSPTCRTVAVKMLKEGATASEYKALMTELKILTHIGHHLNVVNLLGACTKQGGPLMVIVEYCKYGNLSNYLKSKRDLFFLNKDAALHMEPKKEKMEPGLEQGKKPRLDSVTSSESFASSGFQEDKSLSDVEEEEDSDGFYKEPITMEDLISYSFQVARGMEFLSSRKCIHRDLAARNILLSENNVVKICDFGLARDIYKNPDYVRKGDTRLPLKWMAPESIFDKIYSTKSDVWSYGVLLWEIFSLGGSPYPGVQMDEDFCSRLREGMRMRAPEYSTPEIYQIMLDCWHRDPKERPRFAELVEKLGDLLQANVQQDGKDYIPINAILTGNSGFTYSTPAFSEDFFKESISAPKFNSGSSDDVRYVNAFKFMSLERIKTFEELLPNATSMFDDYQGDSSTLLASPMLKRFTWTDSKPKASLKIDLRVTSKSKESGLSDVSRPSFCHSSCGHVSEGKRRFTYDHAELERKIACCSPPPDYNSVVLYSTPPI
protocol.text: VEGFR1 kinase inhibition assay (ELISA-based, time-resolved fluorescence)
Assay type: biochemical
measurement.context: 1 uM compound; 30 μM ATP
Experimental: Inhibition of Vascular Endothelial Growth Factor Receptor-1 Kinase Activity The VEGFR1 kinase activity assay utilizes an ELISA-based format in a 96-well FluoroNUNC Maxisorp plate with a time-resolved fluorescence readout. The plate was coated with 100 μl/well of substrate solution (recombinant human PLC-γ/GST) at a concentration of 40 μg/ml in Tris buffered saline (TBS). […] After 5 min, the fluorescence of the resulting solution was measured using the BMG Fluostar (Model # 403).
experimental.readout: VEGFR-1 kinase % inhibition @ 1 uM

Before answering, review these 3 worked examples.
structure.string	VEGFR-1 kinase % inhibition @ 1 uM
Cc1cc(C)c(C=C2C(=O)NN=C2C2c3ccccc3Oc3ccccc32)[nH]1	9%
COC(=O)c1ccc2c(C=C3C(=O)NN=C3c3ccco3)c[nH]c2c1	31%
COc1ccc2[nH]cc(C=C3C(=O)NN=C3c3ccco3)c2c1	25%

Data point: Cn1ccc(C2=NNC(=O)C2=Cc2c[nH]c3ccc(Cl)cc23)c1 ; VEGFR-1 kinase % inhibition @ 1 uM = 10%

Data point: O=C1NN=C(c2ccco2)C1=Cc1ncc[nH]1 ; VEGFR-1 kinase % inhibition @ 1 uM = 5%

Data point: Cc1cc(C)c(C=C2C(=O)NN=C2c2cccs2)[nH]1 ; VEGFR-1 kinase % inhibition @ 1 uM = 44%

Data point: N#CCCn1cc(C=C2C(=O)NN=C2c2cccs2)c2ccccc21 ; VEGFR-1 kinase % inhibition @ 1 uM = 24%

Data point: Cn1ccc(C2=NNC(=O)C2=Cc2c[nH]c3ccccc23)c1 ; VEGFR-1 kinase % inhibition @ 1 uM = 39%

Data point: Cc1[nH]c(C=C2C(=O)NN=C2c2ccoc2)c(Br)c1Br ; VEGFR-1 kinase % inhibition @ 1 uM = 21%

----------
study.target: recombinant human baculoviral VEGFR2 cyctoplasmic domain (Homo sapiens, UniProt P35968)
Construct: recombinant human baculoviral VEGFR2 cyctoplasmic domain; host or cells: baculovirus expression system
Sequence (P35968 786-1356 limits assumed): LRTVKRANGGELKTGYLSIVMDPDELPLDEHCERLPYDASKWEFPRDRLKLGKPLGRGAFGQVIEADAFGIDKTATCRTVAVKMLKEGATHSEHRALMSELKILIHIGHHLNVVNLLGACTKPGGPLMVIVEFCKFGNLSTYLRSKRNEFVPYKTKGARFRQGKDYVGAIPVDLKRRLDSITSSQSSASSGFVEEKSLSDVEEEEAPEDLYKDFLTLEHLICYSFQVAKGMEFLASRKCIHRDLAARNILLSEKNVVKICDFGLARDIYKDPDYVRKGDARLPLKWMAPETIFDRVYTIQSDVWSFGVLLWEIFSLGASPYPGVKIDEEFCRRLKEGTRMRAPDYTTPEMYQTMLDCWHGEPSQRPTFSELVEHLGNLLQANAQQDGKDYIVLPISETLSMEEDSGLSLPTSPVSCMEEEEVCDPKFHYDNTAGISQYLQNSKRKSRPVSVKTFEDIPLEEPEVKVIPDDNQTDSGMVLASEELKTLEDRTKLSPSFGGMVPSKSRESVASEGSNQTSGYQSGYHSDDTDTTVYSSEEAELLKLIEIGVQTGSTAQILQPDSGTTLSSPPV
protocol.text: VEGFR2 kinase inhibition assay (ELISA-based, time-resolved fluorescence)
Format: biochemical
measurement.context: 1 uM compound; 30 μM ATP
Attribute: VEGFR-2 kinase % inhibition @ 1 uM
Field format: number, assumed %, no unit text.

compound	study.target	value
N#CCCn1cc(C=C2C(=O)NN=C2c2nccs2)c2ccccc21 [Compound 64]	recombinant human baculoviral VEGFR2 cyctoplasmic domain (Homo sapiens, UniProt P35968)	43
Cc1c(I)[nH]c(C=C2C(=O)NN=C2c2ccoc2)c1I [Compound 6]	recombinant human baculoviral VEGFR2 cyctoplasmic domain (Homo sapiens, UniProt P35968)	9

Here's the next entry for you.
Data point: O=C1NN=C(c2ccoc2)C1=Cc1c[nH]c2ccccc12 [Compound 9] ; VEGFR-2 kinase % inhibition @ 1 uM = 49

----------
study.target: recombinant human baculoviral VEGFR2 cyctoplasmic domain (Homo sapiens, UniProt P35968)
Construct: recombinant human baculoviral VEGFR2 cyctoplasmic domain; host or cells: baculovirus expression system
protocol.text: VEGFR2 kinase inhibition assay (ELISA-based, time-resolved fluorescence)
Type: biochemical
measurement.context: 1 uM compound; 30 μM ATP
Using VEGFR-2 kinase % inhibition @ 1 uM as the sorting value, the categories are bottom: < 20%; middle: ≥ 20% and < 30%; top: ≥ 30%

Take a look at these entries with their results.
compound	study.target	category.label
N#CCCn1cc(C=C2C(=O)NN=C2c2ccoc2)c2ccccc21 [Compound 65]	recombinant human baculoviral VEGFR2 cyctoplasmic domain (Homo sapiens, UniProt P35968)	top
Cc1cc(C)c(C=C2C(=O)NN=C2c2cccnc2)[nH]1 [Compound 10]	recombinant human baculoviral VEGFR2 cyctoplasmic domain (Homo sapiens, UniProt P35968)	top
Cc1nc(C)c(C2=NNC(=O)C2=Cc2c[nH]c3ccccc23)s1 [Compound 13]	recombinant human baculoviral VEGFR2 cyctoplasmic domain (Homo sapiens, UniProt P35968)	middle

Sort into band: Cc1cc(C)c(C=C2C(=O)NN=C2c2csc(-c3ccccc3)n2)[nH]1 [Compound 40]
middle

Sort into band: O=C1NN=C(c2ccoc2)C1=Cc1c[nH]c2ccc(Cl)cc12 [Compound 17]
top

Sort into band: O=C1NN=C(c2ccoc2)C1=Cc1ncc[nH]1 [Compound 15]
bottom

Sort into band: O=C1NN=C(c2ccoc2)C1=Cc1ccc[nH]1 [Compound 12]
middle

Sort into band: Cc1oc(-c2ccc(Cl)cc2)cc1C1=NNC(=O)C1=Cc1c[nH]c2ccccc12 [Compound 42]
middle

Sort into band: Cc1cc(C)c(C=C2C(=O)NN=C2C2c3ccccc3Oc3ccccc32)[nH]1 [Compound 2]
middle

Sort into band: Cc1cccc2c(C=C3C(=O)NN=C3c3ccco3)c[nH]c12 [Compound 47]
top

Sort into band: COc1ccc2[nH]cc(C=C3C(=O)NN=C3c3ccoc3)c2c1 [Compound 11]
top

Sort into band: Cc1ccc2c(C=C3C(=O)NN=C3c3ccn(C)c3)c[nH]c2c1 [Compound 33]
middle

Sort into band: O=C1NN=C(c2ccco2)C1=Cc1c[nH]c2cccc(OCc3ccccc3)c12 [Compound 44]
bottom

Sort into band: Cn1ccc(C2=NNC(=O)C2=Cc2c[nH]c3cccc(OCc4ccccc4)c23)c1 [Compound 31]
bottom

Sort into band: Cc1cc(C)c(C=C2C(=O)NN=C2c2ccccn2)[nH]1 [Compound 30]
top

Sort into band: Cc1cccc2c(C=C3C(=O)NN=C3c3ccn(C)c3)c[nH]c12 [Compound 34]
top

Sort into band: CN(C)c1ccc(C=C2C(=O)NN=C2c2ccco2)cc1 [Compound 52]
bottom

Sort into band: CCOC(=O)CCc1c(C(=O)OCC)[nH]c(C=C2C(=O)NN=C2c2ccoc2)c1CC(=O)OCC [Compound 7]
bottom
